- System: DIPGX29 (H3.3 K27M diffuse intrinsic pontine glioma line)
- run description: EC50 (inflection of fitted growth-inhibition curve) (log10 M)
Mark satisfied only when EC50 (log10 M) stays strictly below -5. Values equal to the cut-off are not satisfied.

Solved entries (count: 2):
Answer whether the molecule [O-][n+]1ccccc1[S-].[O-][n+]1ccccc1[S-].[Zn+2] has EC50 (log10 M) strictly less than -5
satisfied

Answer whether the molecule O=C(c1ccc(Nc2nccc(-c3cc4ccccc4s3)n2)cc1)N1CCC(N2CCCC2)CC1 has EC50 (log10 M) strictly less than -5
satisfied

Others:
Answer whether the molecule CCCCOc1ccc(C(=O)CCN2CCCCC2)cc1 has EC50 (log10 M) strictly less than -5
not satisfied

Answer whether the molecule CN1CCCN(C(=O)c2cccc(-c3ccc(/C=C4/C(=O)Nc5ccc(Cl)cc54)o3)c2)CC1 has EC50 (log10 M) strictly less than -5
satisfied

Answer whether the molecule COc1ccc(C[C@H](NC(=O)[C@H](C)NC(=O)CN2CCOCC2)C(=O)N[C@@H](Cc2ccccc2)C(=O)C2(C)CO2)cc1 (stereo in doubt) has EC50 (log10 M) strictly less than -5
satisfied

Answer whether the molecule Clc1ccc(C(Cn2ccnc2)OCc2csc3c(Cl)cccc23)c(Cl)c1 (stereo unspecified) has EC50 (log10 M) strictly less than -5
not satisfied

Answer whether the molecule COc1cc(NC(C)CCCN)c2ncccc2c1 (stereo unspecified) has EC50 (log10 M) strictly less than -5
satisfied

Answer whether the molecule CN(C)C/C=C/C(=O)Nc1cc2c(Nc3ccc(F)c(Cl)c3)ncnc2cc1O[C@H]1CCOC1 has EC50 (log10 M) strictly less than -5
not satisfied

Answer whether the molecule CCOc1cc(C(C)(C)C)ccc1C1=N[C@@](C)(c2ccc(Cl)cc2)[C@@](C)(c2ccc(Cl)cc2)N1C(=O)N1CCN(CCCS(C)(=O)=O)CC1 has EC50 (log10 M) strictly less than -5
not satisfied

Answer whether the molecule CNC(=O)c1ccccc1Sc1ccc2c(/C=C/c3ccccn3)n[nH]c2c1 has EC50 (log10 M) strictly less than -5
satisfied

Answer whether the molecule COc1cc([C@@H]2c3cc4c(cc3[C@@H](O[C@@H]3O[C@@H]5CO[C@@H](c6cccs6)O[C@H]5[C@H](O)[C@H]3O)[C@H]3COC(=O)[C@H]23)OCO4)cc(OC)c1O [TENIPOSIDE] has EC50 (log10 M) strictly less than -5
satisfied

====

Entries and their measured area under dose-response curve follow.
- Tested on: SUDIPGXIII (diffuse intrinsic pontine glioma line)
- run description: area under dose-response curve of % growth inhibition (log2 RLU vs DMSO / staurosporine), 1e-11 to 1e-4 M (% x log10 M); higher = more growth inhibition
Output: the number by itself.

Summary for this compound, C[C@@H](Oc1cc(-c2cnn(C3CCNCC3)c2)cnc1N)c1c(Cl)ccc(F)c1Cl : area under dose-response curve is 74.2

Summary for this compound, CCN(CC)CCNC(=O)c1c(C)[nH]c(/C=C2\C(=O)Nc3ccc(F)cc32)c1C : area under dose-response curve is 144

Summary for this compound, Nc1ccc2ncnc(NCCc3ccc(Oc4ccccc4)cc3)c2c1 : area under dose-response curve is 348

Turning now to a further compound:
Summary for this compound, CN(C)C/C=C/C(=O)Nc1ccc(C(=O)Nc2cccc(Nc3ncc(Cl)c(-c4c[nH]c5ccccc45)n3)c2)cc1 : area under dose-response curve is 308

====

- Tested on: SUDIPGVI (diffuse intrinsic pontine glioma line)
- run description: area under dose-response curve of % growth inhibition (log2 RLU vs DMSO / staurosporine), 1e-11 to 1e-4 M (% x log10 M); higher = more growth inhibition
property name: area under dose-response curve
Output: the number by itself.

The examples below pair each entry with its known result.
Summary for this compound, COc1ccc(C[C@H](NC(=O)[C@H](C)NC(=O)CN2CCOCC2)C(=O)N[C@@H](Cc2ccccc2)C(=O)C2(C)CO2)cc1 (stereo in doubt) : area under dose-response curve is 233

Summary for this compound, CN(C)C/C=C/C(=O)Nc1cc2c(Nc3ccc(F)c(Cl)c3)ncnc2cc1O[C@H]1CCOC1 : area under dose-response curve is 130

Summary for this compound, C=CCNC1=C2C[C@@H](C)C[C@H](OC)[C@H](O)[C@@H](C)/C=C(\C)[C@H](OC(N)=O)[C@@H](OC)/C=C\C=C(/C)C(=O)NC(=CC1=O)C2=O : area under dose-response curve is 42.2

Summary for this compound, O=C([C@@H](Cc1cccc(C(F)(F)F)c1)NS(=O)(=O)c1cc(F)c2c(c1)CCNC2)N1CCCC1 : area under dose-response curve is 8.26

Summary for this compound, O=c1ncccn1[C@@H]1O[C@H](CO)[C@@H](O)[C@H]1O : area under dose-response curve is 13.2

Turning now to a further compound:
Summary for this compound, CC(C)c1cc(-c2n[nH]c(=O)n2-c2ccc3c(ccn3C)c2)c(O)cc1O : area under dose-response curve is 158

====

- Test system: HGGX39 (paediatric high-grade glioma line)
- run description: area under dose-response curve of % growth inhibition (log2 RLU vs DMSO / staurosporine), 1e-11 to 1e-4 M (% x log10 M); higher = more growth inhibition
Entries and their measured area under dose-response curve follow.
Output: the number by itself.

Summary for this molecule, COc1cc2/c(=N/c3ccc(Br)cc3F)nc[nH]c2cc1OCC1CCN(C)CC1 : area under dose-response curve is 60.3

Summary for this molecule, Cc1nc(Nc2n[nH]c3c2CN(C(=O)N[C@H](CN(C)C)c2ccccc2)C3(C)C)c2sccc2n1 : area under dose-response curve is 120

Turning now to a further molecule:
Summary for this molecule, C=CCn1c(=O)c2cnc(Nc3ccc(N4CCN(C)CC4)cc3)nc2n1-c1cccc(C(C)(C)O)n1 : area under dose-response curve is 46.4

====

- Tested on: DIPGX29
- run description: maximal growth inhibition (yFin) relative to DMSO / staurosporine; higher = more efficacious
property name: maximal growth inhibition

Summary for this compound, Cc1nnc(C[C@@H]2C=C(c3ccc(Cl)cc3)c3ccccc3-n3c(C)nnc32)o1 : maximal growth inhibition is 21.8%

Summary for this compound, O=C(N/N=C/c1ccc([N+](=O)[O-])o1)c1ccc(O)cc1 [NIFUROXAZIDE] : maximal growth inhibition is 81.1%

Summary for this compound, Cc1cc(C)c(S(=O)(=O)N(Cc2ccc(-c3cccc(S(C)(=O)=O)c3)cc2)Cc2ccc(C(F)(F)F)o2)c(C)c1 : maximal growth inhibition is 87.3%

Turning now to a further compound:
Summary for this compound, CNC(=O)c1cc(Oc2ccc(NC(=O)Nc3ccc(Cl)c(C(F)(F)F)c3)c(F)c2)ccn1 : maximal growth inhibition is 37.6%

====

- Tested on: DIPGX37 (H3.3 K27M diffuse intrinsic pontine glioma line)
- run description: EC50 (inflection of fitted growth-inhibition curve) (log10 M)
property name: EC50 (log10 M)

The examples below pair each entry with its known result.
Summary for this compound, Clc1ccc(C(Cn2ccnc2)OCc2csc3c(Cl)cccc23)c(Cl)c1 (configuration not stated) [SERTACONAZOLE] : EC50 (log10 M) is -4.87

Summary for this compound, Fc1ccc(C(c2ccc(F)cc2)N2CCN(C/C=C/c3ccccc3)CC2)cc1 [FLUNARIZINE] : EC50 (log10 M) is -4.84

Summary for this compound, CNC(=O)c1cc(Oc2ccc(NC(=O)Nc3ccc(Cl)c(C(F)(F)F)c3)c(F)c2)ccn1 [REGORAFENIB] : EC50 (log10 M) is -5.37

Summary for this compound, CCN(CC)CCCC(C)Nc1c2ccc(Cl)cc2nc2ccc(OC)cc12 (configuration not stated) [QUINACRINE] : EC50 (log10 M) is -4.78

Summary for this compound, CN(C)C/C=C/C(=O)Nc1ccc(C(=O)Nc2cccc(Nc3ncc(Cl)c(-c4c[nH]c5ccccc45)n3)c2)cc1 [THZ1] : EC50 (log10 M) is -7.71

Others:
Summary for this compound, Cc1nc(-c2cccnc2)sc1C(=O)Nc1ccccc1-c1cn2c(CN3CCOCC3)csc2n1 [SRT2104] : EC50 (log10 M) is -5.24

Summary for this compound, CC(=O)O[C@H]1C(=O)[C@@]2(C)[C@H]([C@H](OC(=O)c3ccccc3)[C@]3(O)C[C@H](OC(=O)[C@H](O)[C@@H](NC(=O)c4ccccc4)c4ccccc4)C(C)=C1C3(C)C)[C@]1(OC(C)=O)CO[C@@H]1C[C@@H]2O [PACLITAXEL] : EC50 (log10 M) is -8.09

Summary for this compound, CC(C)C[C@H](NC(=O)CNC(=O)c1cc(Cl)ccc1Cl)B(O)O [IXAZOMIB] : EC50 (log10 M) is -7.94

Summary for this compound, COCC1(CO)C(=O)C2CCN1CC2 (configuration not stated) [APR-246] : EC50 (log10 M) is -4.79

Summary for this compound, COc1ccc(-c2nc(N3CCOCC3)c3sc(CN(C)c4ncc(C(=O)NO)cn4)cc3n2)cn1 [CUDC-907] : EC50 (log10 M) is -6.78

Summary for this compound, C=CCn1c(=O)c2cnc(Nc3ccc(N4CCN(C)CC4)cc3)nc2n1-c1cccc(C(C)(C)O)n1 [MK-1775] : EC50 (log10 M) is -6.2

Summary for this compound, COc1cc2c(cc1-c1c(C)noc1C)ncc1[nH]c(=O)n([C@H](C)c3ccccn3)c12 [I-BET151] : EC50 (log10 M) is -5.65
